- Tested on: KAI3 (IL-2 2.5 ng/mL);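 further: normalised to DMSO-only wells as negative and benzethonium chloride as positive control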
- PROTOCOL_NOTES: percent inhibition of viability; higher = more inhibition
- ASSAY_CONTEXT: 72 h; 1000 nM
Consider the cut-off 50%. If the recorded percent inhibition of viability is strictly smaller, the label is YES; if not, the label is NO.

COMPOUND	CLASS_NAME
CCn1c(=O)c(-c2cc[nH]n2)cc2c(C)nc(N)nc21 [Voxtalisib] (max concentration tested 10000 nM)	YES
CN1CCN(c2ccc3nc(-c4c(N)c5c(F)cccc5[nH]c4=O)[nH]c3c2)CC1 [Dovitinib] (max concentration tested 10000 nM)	YES
CN(C)CCOc1ccc(/C(=C(/CCCl)c2ccccc2)c2ccccc2)cc1 [Toremifene] (max concentration tested 10000 nM)	YES
CC(C)C[C@H](NC(=O)[C@H](Cc1ccccc1)NC(=O)c1cnccn1)B(O)O [Bortezomib] (max concentration tested 1000 nM)	NO
c1ccc2c(CCNc3ccc(Nc4ccncc4)cc3)c[nH]c2c1 [Serdemetan] (max concentration tested 10000 nM)	NO
